Entry source: the RNAGym collection of RNA variant scans (doi:10.1073/pnas.2313332121)

B1: TPR t1 (parent)
chain: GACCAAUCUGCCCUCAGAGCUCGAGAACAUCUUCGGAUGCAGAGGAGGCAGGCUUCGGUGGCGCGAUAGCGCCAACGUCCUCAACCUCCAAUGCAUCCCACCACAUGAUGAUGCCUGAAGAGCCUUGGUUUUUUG

Variants of: B1
EXPERIMENTAL PROTOCOL: polymerase ribozyme fitness, log enrichment relative to wild type (log ratio); higher = more active; in vitro selection for triplet polymerase activity

[
  {
    "MUTATION ANNOTATION": "A41U G63A U78A A83U",
    "polymerase ribozyme fitness (log ratio)": -4.53
  },
  {
    "MUTATION ANNOTATION": "C70U U87C",
    "polymerase ribozyme fitness (log ratio)": 0.738
  },
  {
    "MUTATION ANNOTATION": "A18U G69C C85A C89G",
    "polymerase ribozyme fitness (log ratio)": -6.03
  },
  {
    "MUTATION ANNOTATION": "C13U U14C G69U C70U A90G",
    "polymerase ribozyme fitness (log ratio)": -2.94
  },
  {
    "MUTATION ANNOTATION": "A5C U9G",
    "polymerase ribozyme fitness (log ratio)": 0.0336
  },
  {
    "MUTATION ANNOTATION": "C31U C85G",
    "polymerase ribozyme fitness (log ratio)": -5.19
  },
  {
    "MUTATION ANNOTATION": "C3U C11G C12A A50U C56G G113U",
    "polymerase ribozyme fitness (log ratio)": -6.33
  },
  {
    "MUTATION ANNOTATION": "G19A G63A A111G",
    "polymerase ribozyme fitness (log ratio)": -1.39
  },
  {
    "MUTATION ANNOTATION": "C80U G135U",
    "polymerase ribozyme fitness (log ratio)": -0.986
  },
  {
    "MUTATION ANNOTATION": "A16U U116C",
    "polymerase ribozyme fitness (log ratio)": -0.734
  },
  {
    "MUTATION ANNOTATION": "A43C G47U G69U",
    "polymerase ribozyme fitness (log ratio)": -1.43
  },
  {
    "MUTATION ANNOTATION": "U54G G57C",
    "polymerase ribozyme fitness (log ratio)": -1.44
  },
  {
    "MUTATION ANNOTATION": "A27U G47A U125G",
    "polymerase ribozyme fitness (log ratio)": -2.83
  },
  {
    "MUTATION ANNOTATION": "U81A C115G",
    "polymerase ribozyme fitness (log ratio)": -2.4
  },
  {
    "MUTATION ANNOTATION": "C13U C34G G47U C72G U112A",
    "polymerase ribozyme fitness (log ratio)": -5.6
  },
  {
    "MUTATION ANNOTATION": "U116G G117C",
    "polymerase ribozyme fitness (log ratio)": -2.43
  },
  {
    "MUTATION ANNOTATION": "A5U G44C",
    "polymerase ribozyme fitness (log ratio)": -1.05
  },
  {
    "MUTATION ANNOTATION": "U59C G107C U112A U133G",
    "polymerase ribozyme fitness (log ratio)": -6.34
  },
  {
    "MUTATION ANNOTATION": "C4G G61U G93A",
    "polymerase ribozyme fitness (log ratio)": -2.57
  },
  {
    "MUTATION ANNOTATION": "C53G G110C",
    "polymerase ribozyme fitness (log ratio)": -4.65
  },
  {
    "MUTATION ANNOTATION": "G61U C82G A91C U112C",
    "polymerase ribozyme fitness (log ratio)": 0.876
  },
  {
    "MUTATION ANNOTATION": "A37C C53U C123U",
    "polymerase ribozyme fitness (log ratio)": 0.761
  },
  {
    "MUTATION ANNOTATION": "G35A G52C C86U",
    "polymerase ribozyme fitness (log ratio)": -6.34
  },
  {
    "MUTATION ANNOTATION": "G19A C62A C82A G93U U112A",
    "polymerase ribozyme fitness (log ratio)": -2.13
  },
  {
    "MUTATION ANNOTATION": "U9A C79A G93U C101A",
    "polymerase ribozyme fitness (log ratio)": -2.59
  },
  {
    "MUTATION ANNOTATION": "G63A U116C",
    "polymerase ribozyme fitness (log ratio)": -0.908
  },
  {
    "MUTATION ANNOTATION": "C86A U96C",
    "polymerase ribozyme fitness (log ratio)": -0.678
  },
  {
    "MUTATION ANNOTATION": "U38G U87A A95C",
    "polymerase ribozyme fitness (log ratio)": -1.01
  },
  {
    "MUTATION ANNOTATION": "G39A C56U C85U A111U",
    "polymerase ribozyme fitness (log ratio)": -3.84
  },
  {
    "MUTATION ANNOTATION": "C56A G93A",
    "polymerase ribozyme fitness (log ratio)": -0.661
  },
  {
    "MUTATION ANNOTATION": "G39U G51A",
    "polymerase ribozyme fitness (log ratio)": -3.64
  },
  {
    "MUTATION ANNOTATION": "C62A C101A G113A",
    "polymerase ribozyme fitness (log ratio)": -2.77
  },
  {
    "MUTATION ANNOTATION": "G110C U125C",
    "polymerase ribozyme fitness (log ratio)": -2.68
  },
  {
    "MUTATION ANNOTATION": "U14A G19A G42U A43C C70A",
    "polymerase ribozyme fitness (log ratio)": -6.34
  },
  {
    "MUTATION ANNOTATION": "C13U C20G G45A U96A",
    "polymerase ribozyme fitness (log ratio)": -4.96
  },
  {
    "MUTATION ANNOTATION": "G10A C11A C15A",
    "polymerase ribozyme fitness (log ratio)": -4.29
  },
  {
    "MUTATION ANNOTATION": "A108U C123G",
    "polymerase ribozyme fitness (log ratio)": -3.08
  },
  {
    "MUTATION ANNOTATION": "A29G A105C",
    "polymerase ribozyme fitness (log ratio)": -7.42
  },
  {
    "MUTATION ANNOTATION": "A29C C62G",
    "polymerase ribozyme fitness (log ratio)": -4.52
  },
  {
    "MUTATION ANNOTATION": "A41U C82G",
    "polymerase ribozyme fitness (log ratio)": -2.37
  },
  {
    "MUTATION ANNOTATION": "C56A U87A U106A",
    "polymerase ribozyme fitness (log ratio)": -0.176
  },
  {
    "MUTATION ANNOTATION": "G61C C97U",
    "polymerase ribozyme fitness (log ratio)": -2.51
  },
  {
    "MUTATION ANNOTATION": "A24G C40U C62G",
    "polymerase ribozyme fitness (log ratio)": -3.54
  },
  {
    "MUTATION ANNOTATION": "C13U U55G C72U",
    "polymerase ribozyme fitness (log ratio)": -0.221
  },
  {
    "MUTATION ANNOTATION": "C72G U81A U130A",
    "polymerase ribozyme fitness (log ratio)": -1.44
  },
  {
    "MUTATION ANNOTATION": "G60C G61A U96A",
    "polymerase ribozyme fitness (log ratio)": -2.15
  },
  {
    "MUTATION ANNOTATION": "U92A G93C",
    "polymerase ribozyme fitness (log ratio)": -2.69
  },
  {
    "MUTATION ANNOTATION": "C94U G107A",
    "polymerase ribozyme fitness (log ratio)": -4.87
  },
  {
    "MUTATION ANNOTATION": "G51U C94A U133G",
    "polymerase ribozyme fitness (log ratio)": -3.88
  },
  {
    "MUTATION ANNOTATION": "A26G A37U C123U U133A",
    "polymerase ribozyme fitness (log ratio)": -2.78
  },
  {
    "MUTATION ANNOTATION": "A43U G117U",
    "polymerase ribozyme fitness (log ratio)": -3.35
  },
  {
    "MUTATION ANNOTATION": "A29U C62G U81C A100U C124A",
    "polymerase ribozyme fitness (log ratio)": -3.66
  },
  {
    "MUTATION ANNOTATION": "G36A A84C G117A",
    "polymerase ribozyme fitness (log ratio)": -2.24
  },
  {
    "MUTATION ANNOTATION": "G63U A84U C86A G128U U130C",
    "polymerase ribozyme fitness (log ratio)": -3.81
  },
  {
    "MUTATION ANNOTATION": "A50G C53G G61A U116A G117A",
    "polymerase ribozyme fitness (log ratio)": -3.29
  },
  {
    "MUTATION ANNOTATION": "A5U G17C G23A C115G U131C",
    "polymerase ribozyme fitness (log ratio)": -5.42
  },
  {
    "MUTATION ANNOTATION": "G71U G113C C114U G128A",
    "polymerase ribozyme fitness (log ratio)": -3.3
  },
  {
    "MUTATION ANNOTATION": "C34G U106A",
    "polymerase ribozyme fitness (log ratio)": -4.72
  },
  {
    "MUTATION ANNOTATION": "C80A G113A G135A",
    "polymerase ribozyme fitness (log ratio)": -3.66
  },
  {
    "MUTATION ANNOTATION": "A46C C76A C86U C104U",
    "polymerase ribozyme fitness (log ratio)": -0.577
  },
  {
    "MUTATION ANNOTATION": "G25A A26U A43G G61C U78A C102U G110C",
    "polymerase ribozyme fitness (log ratio)": -7.68
  },
  {
    "MUTATION ANNOTATION": "G63A G107A",
    "polymerase ribozyme fitness (log ratio)": -6.55
  },
  {
    "MUTATION ANNOTATION": "C70U C94G",
    "polymerase ribozyme fitness (log ratio)": -0.729
  },
  {
    "MUTATION ANNOTATION": "A43G G47C C64U C86G U125G G127C",
    "polymerase ribozyme fitness (log ratio)": -3.04
  },
  {
    "MUTATION ANNOTATION": "A29U C56G G58C G77A C88U G120C C123G U129A",
    "polymerase ribozyme fitness (log ratio)": -5.14
  },
  {
    "MUTATION ANNOTATION": "C101A C115U",
    "polymerase ribozyme fitness (log ratio)": -2.63
  },
  {
    "MUTATION ANNOTATION": "C102U A121G",
    "polymerase ribozyme fitness (log ratio)": 0.0036
  },
  {
    "MUTATION ANNOTATION": "C13G G39U U54A",
    "polymerase ribozyme fitness (log ratio)": -2.59
  },
  {
    "MUTATION ANNOTATION": "C104A G122A",
    "polymerase ribozyme fitness (log ratio)": -2.31
  },
  {
    "MUTATION ANNOTATION": "A24U A27U C28U G36U A111U",
    "polymerase ribozyme fitness (log ratio)": -5.92
  },
  {
    "MUTATION ANNOTATION": "A50U C76A C82U",
    "polymerase ribozyme fitness (log ratio)": -1.67
  },
  {
    "MUTATION ANNOTATION": "G47C C62G G120C G128A",
    "polymerase ribozyme fitness (log ratio)": -5.53
  },
  {
    "MUTATION ANNOTATION": "C28U G71U",
    "polymerase ribozyme fitness (log ratio)": -2.6
  },
  {
    "MUTATION ANNOTATION": "A66C U130G U133A",
    "polymerase ribozyme fitness (log ratio)": -1.91
  },
  {
    "MUTATION ANNOTATION": "C13G A43U C76U C123G",
    "polymerase ribozyme fitness (log ratio)": -0.345
  },
  {
    "MUTATION ANNOTATION": "C40G C82U U106A",
    "polymerase ribozyme fitness (log ratio)": -1.73
  },
  {
    "MUTATION ANNOTATION": "C73U C76U C97U U112A U129A",
    "polymerase ribozyme fitness (log ratio)": -1.35
  },
  {
    "MUTATION ANNOTATION": "C8G C40A C53G G63U U109G",
    "polymerase ribozyme fitness (log ratio)": -7.06
  },
  {
    "MUTATION ANNOTATION": "C34A C62A",
    "polymerase ribozyme fitness (log ratio)": -4.45
  },
  {
    "MUTATION ANNOTATION": "C28U C80A",
    "polymerase ribozyme fitness (log ratio)": -5.53
  },
  {
    "MUTATION ANNOTATION": "C28U G45U C114U",
    "polymerase ribozyme fitness (log ratio)": -4.18
  },
  {
    "MUTATION ANNOTATION": "G42A G45A A50G G113U U129A G135A",
    "polymerase ribozyme fitness (log ratio)": -3.94
  }
]
